assay: The drug is tested on Odoribacter splanchnicus strain: fecal isolate for biotransformation. The drug concentrations were measured before and after a 12-h incubation by liquid-chromatography-coupled mass spectrometry (LC–MS); conditions: 2 µM
Non-standard residues stand in square brackets, D forms with d. Residues, ends and D or L forms follow the SMILES beside them. pGlu = O=C1CC[C@@H](C(=O)O)N1; Thz = O=C(O)[C@@H]1CSCN1
endpoint-label: Bacterial Biotransformation

Check out these entries, answers already filled in.
(Q) For the molecule CCCc1nc2c(C)cc(-c3nc4ccccc4n3C)cc2n1Cc1ccc(-c2ccccc2C(=O)O)cc1 , what Bacterial Biotransformation is on record?
(A) Compound metabolized

(Q) For the molecule CC(CN(C)C)CN1c2ccccc2CCc2ccccc21.O=C(O)/C=C\C(=O)O (stereo not drawn) [TRIMIPRAMINE MALEATE] , what Bacterial Biotransformation is on record?
(A) Compound NOT metabolized

(Q) For the molecule Cc1nc2n(c(=O)c1CCN1CCC(c3noc4cc(F)ccc34)CC1)CCCC2 [RISPERIDONE] , what Bacterial Biotransformation is on record?
(A) Compound metabolized

(Q) For the molecule CC(=O)SCC(Cc1ccccc1)C(=O)NCC(=O)OCc1ccccc1 (stereo not drawn) [RACECADOTRIL] , what Bacterial Biotransformation is on record?
(A) Compound metabolized

(Q) For the molecule CC(=O)OCC(=O)[C@@]1(O)[C@@H](C)C[C@H]2[C@@H]3CCC4=CC(=O)C=C[C@]4(C)[C@@]3(F)[C@@H](O)C[C@@]21C [BETAMETHASONE ACETATE] , what Bacterial Biotransformation is on record?
(A) Compound metabolized

Please give Bacterial Biotransformation for each item listed below.
1. C#C[C@]1(OC(C)=O)CC[C@H]2[C@@H]3CCC4=CC(=O)CC[C@@H]4[C@H]3CC[C@@]21C [NORETHINDRONE ACETATE]
2. COc1cc2nc(N3CCN(C(=O)C4CCCO4)CC3)nc(N)c2cc1OC (stereo not drawn) [TERAZOSIN]
3. COc1ccccc1N1CCN(CC(O)COc2cccc3ccccc23)CC1 (stereo not drawn) [NAFTOPIDIL]
4. O=C1CC[C@@H](C(=O)N2CSC[C@H]2C(=O)O)N1 [PIDOTIMOD] ([pGlu]-[Thz]-OH)
5. CC(N)C12CC3CC(CC(C3)C1)C2 (stereo not drawn) [RIMANTADINE]
6. N#Cc1ccc2[nH]cc(CCCCN3CCN(c4ccc5oc(C(N)=O)cc5c4)CC3)c2c1 [VILAZODONE]

(A)
["Compound metabolized", "Compound NOT metabolized", "Compound NOT metabolized", "Compound NOT metabolized", "Compound NOT metabolized", "Compound metabolized"]
